- study_system: G-protein coupled receptor 35 (Homo sapiens, UniProt Q9HC97)
- Sequence (Q9HC97 whole entry, the tested form may be a part): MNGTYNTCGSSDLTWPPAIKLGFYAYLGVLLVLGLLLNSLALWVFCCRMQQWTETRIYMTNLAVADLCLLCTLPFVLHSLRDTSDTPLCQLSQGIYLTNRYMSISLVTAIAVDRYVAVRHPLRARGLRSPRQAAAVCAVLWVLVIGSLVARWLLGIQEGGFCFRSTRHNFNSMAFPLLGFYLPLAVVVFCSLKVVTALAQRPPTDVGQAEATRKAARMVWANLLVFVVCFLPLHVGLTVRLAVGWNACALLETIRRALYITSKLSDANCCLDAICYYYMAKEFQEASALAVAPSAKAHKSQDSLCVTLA
- experimental_details: Agonist activity at GPR35 receptor in human U2OS cells coexpressing Gal4-VP16-TEV assessed as beta arrestin translocation after 5 hrs by beta lactamase reporter gene assay relative to control
- Assay type: functional, cell-based
Assign Ratio to each entry below.

**Query** Please look up its Ratio: N#C/C(=C\c1ccc(O)cc1)C(=O)O [alpha-CYANO-4-HYDROXYCINNAMIC ACID]
**Result** 4

**Query** Then what about the compound O=c1c(O)c(-c2cc(O)c(O)c(O)c2)oc2cc(O)cc(O)c12 [MYRICETIN] ?
**Result** 9.2

**Query** Then what about the compound O=c1c(O)c(-c2ccc(O)c(O)c2)oc2cc(O)cc(O)c12 [QUERCETIN] ?
**Result** 2.3

**Query** Then what about the compound O=c1cc(-c2ccc(O)c(O)c2)oc2cc(O)cc(O)c12 [LUTEOLIN] ?
**Result** 1.5

Each recorded value in this set is attributed to ChEMBL document CHEMBL2034837.
